Data origin, for the record: patent US11279733B2

- Tested on: P. aeruginosa GN_043, PmxR
- CONDITION NOTES: P. aeruginosa GN_043, PmxR
Positions of bridges follow the written chain, without caps; N, C: chain ends. Non-standard residues stand in square brackets, D forms with d. Residues, ends and D or L forms follow the SMILES beside them. *: point of attachment. dPhe(4-NO2) = N[C@H](Cc1ccc([N+](=O)[O-])cc1)C(=O)O; Isonicotinoyl(2-Ph) = O=C(c1ccnc(-c2ccccc2)c1)*; Benzoyl(4-OPh) = O=C(c1ccc(Oc2ccccc2)cc1)*; Decanoyl(3R-OH) = CCCCCCC[C@@H](O)CC(=O)*; dPhe(4-NH2) = Nc1ccc(C[C@@H](N)C(=O)O)cc1; Decanoyl = CCCCCCCCCC(=O)*; dDab = NCC[C@@H](N)C(=O)O; Octanoyl = CCCCCCCC(=O)*; dDap = NC[C@@H](N)C(=O)O; Dab = NCC[C@H](N)C(=O)O; Dap = NC[C@H](N)C(=O)O
READOUT LABEL: MIC P. aeruginosa GN_043, PmxR (µg/mL)

1) CCCCCCCCCC(=O)N[C@H](CN)C(=O)N[C@H]1CCNC(=O)[C@H](CC(C)C)NC(=O)[C@H](CCN)NC(=O)[C@H](CCN)NC(=O)[C@H](CC(C)C)NC(=O)[C@@H](Cc2ccccc2)NC(=O)[C@H](CCN)NC1=O [compound 9192] (Decanoyl-[dDap][Dab][Dab][dF]L[Dab][Dab]L; lactam 2-C)	4
2) CC(C)C[C@@H]1NC(=O)[C@H](CCN)NC(=O)[C@H](CCN)NC(=O)[C@H](Cc2ccccc2)NC(=O)[C@@H](CC(C)C)NC(=O)[C@H](CCN)NC(=O)[C@@H](NC(=O)[C@@H](CCN)NC(=O)c2ccc(Oc3ccccc3)cc2)CCNC1=O [compound 6519] ({Benzoyl(4-OPh)}-[dDab][Dab][Dab][dL]F[Dab][Dab]L; lactam 2-C)	1
3) CCCCCCC[C@@H](O)CC(=O)N[C@H](Cc1ccc(N)cc1)C(=O)N[C@H]1CCNC(=O)[C@H](CC(C)C)NC(=O)[C@H](CCN)NC(=O)[C@H](CCN)NC(=O)[C@H](Cc2ccccc2)NC(=O)[C@@H](CC(C)C)NC(=O)[C@H](CCN)NC1=O [compound 6429] ({Decanoyl(3R-OH)}-[dPhe(4-NH2)][Dab][Dab][dL]F[Dab][Dab]L; lactam 2-C)	16
4) CCCCCCC[C@@H](O)CC(=O)N[C@H](Cc1ccc([N+](=O)[O-])cc1)C(=O)N[C@H]1CCNC(=O)[C@H](CC(C)C)NC(=O)[C@H](CCN)NC(=O)[C@H](CCN)NC(=O)[C@H](Cc2ccccc2)NC(=O)[C@@H](CC(C)C)NC(=O)[C@H](CCN)NC1=O [compound 6433] ({Decanoyl(3R-OH)}-[dPhe(4-NO2)][Dab][Dab][dL]F[Dab][Dab]L; lactam 2-C)	4
5) CC(C)C[C@@H]1NC(=O)[C@H](CCN)NC(=O)[C@H](CCN)NC(=O)[C@H](Cc2ccccc2)NC(=O)[C@@H](CC(C)C)NC(=O)[C@H](CCN)NC(=O)[C@@H](NC(=O)[C@@H](CCN)NC(=O)c2ccnc(-c3ccccc3)c2)CCNC1=O [compound 6517] ({Isonicotinoyl(2-Ph)}-[dDab][Dab][Dab][dL]F[Dab][Dab]L; lactam 2-C)	1
6) CCCCCCCC(=O)N[C@H](CCN)C(=O)N[C@H]1CCNC(=O)[C@H]([C@@H](C)O)NC(=O)[C@H](CCN)NC(=O)[C@H](CCN)NC(=O)[C@H](CC(C)C)NC(=O)[C@@H](Cc2ccccc2)NC(=O)[C@H](CCN)NC1=O [compound 6399] (Octanoyl-[dDab][Dab][Dab][dF]L[Dab][Dab]T; lactam 2-C)	8
7) CCCCCCC[C@@H](O)CC(=O)N[C@H](CCN)C(=O)N[C@H]1CNC(=O)[C@H](CC(C)C)NC(=O)[C@H](CCN)NC(=O)[C@H](CCN)NC(=O)[C@H](CC(C)C)NC(=O)[C@@H](CC(C)C)NC(=O)[C@H](CCN)NC1=O [compound 633] ({Decanoyl(3R-OH)}-[dDab][Dap][Dab][dL]L[Dab][Dab]L; lactam 2-C)	16
